Hey, just so you know, these numbers are from patent US20100256145A1.

Molecular target: UniProt P18130
Sequence (P18130 1-466): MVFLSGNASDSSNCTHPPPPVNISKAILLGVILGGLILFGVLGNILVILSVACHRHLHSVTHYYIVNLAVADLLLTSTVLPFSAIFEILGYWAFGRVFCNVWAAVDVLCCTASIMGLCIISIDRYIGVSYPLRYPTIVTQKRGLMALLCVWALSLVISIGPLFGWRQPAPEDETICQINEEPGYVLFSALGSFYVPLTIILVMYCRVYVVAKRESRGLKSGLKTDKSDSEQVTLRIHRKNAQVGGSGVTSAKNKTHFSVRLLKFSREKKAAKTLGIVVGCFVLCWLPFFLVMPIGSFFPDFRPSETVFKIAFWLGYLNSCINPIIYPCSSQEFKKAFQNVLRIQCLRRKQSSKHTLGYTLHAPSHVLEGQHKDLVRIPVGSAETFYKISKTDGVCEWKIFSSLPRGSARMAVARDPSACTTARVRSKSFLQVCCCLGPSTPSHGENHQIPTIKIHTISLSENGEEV
readout-label: pKi
// returns pKi (minus log10 of molar concentration), number only

Exercise: Item CCOC(=O)Nc1ccc(NCc2ccc(F)cc2)cc1N [Compound 1, reference compound] : provide pKi
Key: 5.70
